# target entity: ATP-dependent translocase ABCB1 (Homo sapiens, UniProt P08183)
# Sequence (P08183 whole entry): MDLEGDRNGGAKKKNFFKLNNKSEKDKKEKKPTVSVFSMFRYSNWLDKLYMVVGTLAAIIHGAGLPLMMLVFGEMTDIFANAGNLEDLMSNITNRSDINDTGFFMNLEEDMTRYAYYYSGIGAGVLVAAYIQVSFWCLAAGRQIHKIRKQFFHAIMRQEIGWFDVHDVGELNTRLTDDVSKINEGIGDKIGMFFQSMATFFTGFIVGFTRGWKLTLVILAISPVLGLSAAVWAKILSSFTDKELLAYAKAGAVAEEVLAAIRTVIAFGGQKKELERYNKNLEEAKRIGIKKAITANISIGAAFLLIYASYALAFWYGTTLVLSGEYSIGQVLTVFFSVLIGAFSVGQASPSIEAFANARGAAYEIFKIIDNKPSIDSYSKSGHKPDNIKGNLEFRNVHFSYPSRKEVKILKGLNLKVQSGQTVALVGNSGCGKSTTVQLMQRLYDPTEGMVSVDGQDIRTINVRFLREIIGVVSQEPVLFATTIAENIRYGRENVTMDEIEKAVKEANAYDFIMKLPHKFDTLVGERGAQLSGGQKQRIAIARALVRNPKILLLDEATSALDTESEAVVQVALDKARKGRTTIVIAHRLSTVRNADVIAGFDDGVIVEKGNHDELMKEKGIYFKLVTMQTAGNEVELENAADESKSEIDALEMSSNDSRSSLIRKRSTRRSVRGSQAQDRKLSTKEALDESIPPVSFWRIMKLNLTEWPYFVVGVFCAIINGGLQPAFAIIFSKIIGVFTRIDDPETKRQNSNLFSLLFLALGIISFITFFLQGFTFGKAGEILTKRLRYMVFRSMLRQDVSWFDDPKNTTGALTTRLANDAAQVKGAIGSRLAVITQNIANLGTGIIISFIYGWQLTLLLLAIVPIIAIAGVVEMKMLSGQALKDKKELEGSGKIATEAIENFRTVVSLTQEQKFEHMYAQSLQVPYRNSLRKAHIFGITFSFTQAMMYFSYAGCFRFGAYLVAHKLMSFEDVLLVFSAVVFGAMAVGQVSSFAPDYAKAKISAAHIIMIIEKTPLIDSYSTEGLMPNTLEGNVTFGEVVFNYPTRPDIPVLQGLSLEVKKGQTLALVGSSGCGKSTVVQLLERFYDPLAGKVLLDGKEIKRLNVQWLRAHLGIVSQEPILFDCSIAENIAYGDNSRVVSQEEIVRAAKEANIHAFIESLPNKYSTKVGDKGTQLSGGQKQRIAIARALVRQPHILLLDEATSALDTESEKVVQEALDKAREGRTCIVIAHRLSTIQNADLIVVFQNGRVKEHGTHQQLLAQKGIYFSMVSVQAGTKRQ
# test protocol: Inhibition of ABCB1 in human KB-V1 cells using calcein-AM as substrate measured after 10 mins by fluorescence assay
# Type: cell-based
# reported conditions: read-out: IC50
Hi there, I'd appreciate the recorded IC50 for every entry that follows.

Input line: Record request: IC50 value, item `COc1cc2c(cc1OC)CN(CCc1ccc(NC(=O)c3cc(OC)c(OC)cc3NC(=O)c3cnc4ccccc4c3)cc1)CC2`
Output line: 0.356 µM

Input line: Value lookup for IC50; key = `COc1ccc(/C(C#N)=C/c2ccc(N3CCC(O)CC3)s2)cc1OC`
Output line: ≥ 65.5 µM

Input line: I would be grateful if you could share the reported IC50 for `COC(=O)c1ccc(-c2cn(-c3ccc(CN4CCc5cc(OC)c(OC)cc5C4)cc3)nn2)cc1NC(=O)c1ccc2ccccc2n1` .
Output line: ≥ 10.7 µM

Input line: For the compound shown here, `COC(=O)c1ccc(-c2cn(-c3ccc(CCN4CCc5ccccc5C4)cc3)nn2)cc1NC(=O)c1ccc2ccccc2n1` , give the reported IC50.
Output line: ≥ 38.3 µM

====

# target entity: ABCB1 (Homo sapiens, UniProt P08183)
# test protocol: Inhibition of ABCB1 in human KB-V1 cells using calcein-AM as substrate measured after 10 mins by fluorescence assay relative to tariquidar
# Format: cell-based
# reported conditions: probe calcein-AM, read-out: Imax
readout type: Emax at 10 min, 10 µM

Input line: Find the recorded Emax at 10 min, 10 µM belonging to `COc1ccc2c3c([nH]c2c1)[C@H](CC(C)C)N1C(=O)[C@H](CCC(=O)OC(C)(C)C)NC(=O)[C@@H]1C3` and report it.
Output line: ≥ 11%

Input line: Which Emax at 10 min, 10 µM reading was recorded for the compound `COC(=O)c1ccc(C(=O)Nc2ccc(CCN3CCc4cc(OC)c(OC)cc4C3)cc2)cc1NC(=O)c1ccc2ccccc2n1` ?
Output line: ≥ 14%

Input line: Query: Emax at 10 min, 10 µM; subject: `COc1cc2c(cc1OC)CN(CCc1ccc(-n3cc(-c4ccc(C(=O)C(C)C)c(NC(=O)c5ccc6ccccc6n5)c4)nn3)cc1)CC2`
Output line: ≥ 24%

Input line: Reported Emax at 10 min, 10 µM, compound `COCCOCCOCCOc1cc2c(cc1OC)CCN(CCc1ccc(-n3cc(-c4ccc(C(=O)OC)c(NC(=O)c5ccc6ccccc6n5)c4)nn3)cc1)C2` : ____
Output line: 80%

Input line: Tell me the measured Emax at 10 min, 10 µM of `COc1ccc2[nH]cc(CCNC(=O)c3cc(=O)c4c(OCc5ccc(Br)cc5)cccc4o3)c2c1` , please.
Output line: > 11%

Input line: Look at this compound and give its reported Emax at 10 min, 10 µM. `COc1ccc(/C(C#N)=C/c2ccc(N3CCC(O)CC3)s2)cc1OC`
Output line: ≥ 53%

Input line: // returns reported Emax at 10 min, 10 µM for input `CCC(=O)c1ccc(-c2cn(-c3ccc(CCN4CCc5cc(OC)c(OCCOCCOCCOC)cc5C4)cc3)nn2)cc1NC(=O)c1ccc2ccccc2n1`
Output line: ≥ 42%

Input line: # query: Emax at 10 min, 10 µM of entry `COC(=O)c1ccc(-c2cn(-c3ccc(CCN4CCc5ccccc5C4)cc3)nn2)cc1NC(=O)c1ccc2ccccc2n1`
Output line: ≥ 11%

Input line: Which Emax at 10 min, 10 µM is reported for this compound? `COCCOCCOCCOc1cc2c(cc1OC)CCN(Cc1ccc(-n3cc(-c4ccc(C(=O)OC)c(NC(=O)c5ccc6ccccc6n5)c4)nn3)cc1)C2`
Output line: ≥ 21%

Input line: State the recorded Emax at 10 min, 10 µM for this entry: `COC(=O)c1ccc(-c2cn(-c3ccc(CN4CCc5cc(OC)c(OC)cc5C4)cc3)nn2)cc1NC(=O)c1ccc2ccccc2n1`
Output line: ≥ 25%

====

Answer each item with its documented Emax at 1 h, 30 µM.
# target entity: ABCC1 (MRP1) (Homo sapiens, UniProt P33527)
# Sequence (P33527 whole entry): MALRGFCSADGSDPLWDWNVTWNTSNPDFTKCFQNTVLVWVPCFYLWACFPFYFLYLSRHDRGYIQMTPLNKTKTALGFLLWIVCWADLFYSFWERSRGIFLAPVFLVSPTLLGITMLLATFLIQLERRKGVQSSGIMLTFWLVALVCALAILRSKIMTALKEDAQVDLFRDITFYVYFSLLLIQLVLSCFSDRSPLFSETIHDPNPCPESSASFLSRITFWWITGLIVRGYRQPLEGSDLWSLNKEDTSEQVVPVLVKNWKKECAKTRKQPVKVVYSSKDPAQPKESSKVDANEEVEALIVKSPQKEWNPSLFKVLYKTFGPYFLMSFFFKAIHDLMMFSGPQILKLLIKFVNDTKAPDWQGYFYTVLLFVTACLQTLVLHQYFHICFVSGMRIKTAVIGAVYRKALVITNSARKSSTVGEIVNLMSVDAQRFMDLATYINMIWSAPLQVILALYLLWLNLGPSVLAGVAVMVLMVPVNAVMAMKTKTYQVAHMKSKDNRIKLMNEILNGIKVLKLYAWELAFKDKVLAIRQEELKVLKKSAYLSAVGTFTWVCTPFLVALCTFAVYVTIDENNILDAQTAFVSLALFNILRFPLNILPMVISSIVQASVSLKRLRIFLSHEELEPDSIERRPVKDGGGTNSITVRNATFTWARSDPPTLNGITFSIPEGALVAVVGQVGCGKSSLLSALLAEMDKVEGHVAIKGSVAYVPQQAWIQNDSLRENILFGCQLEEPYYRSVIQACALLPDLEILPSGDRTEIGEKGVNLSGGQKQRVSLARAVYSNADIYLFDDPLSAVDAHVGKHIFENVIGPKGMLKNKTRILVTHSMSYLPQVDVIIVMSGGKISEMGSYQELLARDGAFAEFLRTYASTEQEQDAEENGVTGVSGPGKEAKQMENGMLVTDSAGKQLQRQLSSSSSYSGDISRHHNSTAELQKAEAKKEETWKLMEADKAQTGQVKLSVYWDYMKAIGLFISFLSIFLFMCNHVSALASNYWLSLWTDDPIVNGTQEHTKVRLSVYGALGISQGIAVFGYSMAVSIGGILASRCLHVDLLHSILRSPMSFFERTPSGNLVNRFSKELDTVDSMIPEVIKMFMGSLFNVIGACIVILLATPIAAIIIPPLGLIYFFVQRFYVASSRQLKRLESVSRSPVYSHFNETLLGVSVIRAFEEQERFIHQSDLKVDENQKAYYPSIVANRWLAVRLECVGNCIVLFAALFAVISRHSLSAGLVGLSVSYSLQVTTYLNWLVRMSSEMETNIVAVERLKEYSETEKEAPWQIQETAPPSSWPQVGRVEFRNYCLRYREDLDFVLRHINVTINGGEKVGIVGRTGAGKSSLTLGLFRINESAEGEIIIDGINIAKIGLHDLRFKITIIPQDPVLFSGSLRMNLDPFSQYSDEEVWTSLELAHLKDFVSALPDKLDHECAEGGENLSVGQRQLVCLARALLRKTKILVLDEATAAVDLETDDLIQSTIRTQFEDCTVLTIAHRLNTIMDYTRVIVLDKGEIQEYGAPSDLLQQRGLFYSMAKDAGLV
# test protocol: Inhibition of human ABCC1 transfected in MDCK2-MRP1 cells using calcein-AM as substrate measured after 1 hr by fluorescence assay relative to reversan
# Assay type: cell-based
# reported conditions: MDCK2-MRP1 cells transfected with human ABCC1, probe calcein-AM, read-out: Imax
The response must be a number in % with no trailing unit.

Input line: Using the record for `COc1ccc2c3c([nH]c2c1)[C@H](CC(C)C)N1C(=O)[C@H](CCC(=O)OC(C)(C)C)NC(=O)[C@@H]1C3` , report its Emax at 1 h, 30 µM.
Output line: 29

Input line: I'd like to know its Emax at 1 h, 30 µM. The molecule in question is `COc1ccc2[nH]cc(CCNC(=O)c3cc(=O)c4c(OCc5ccc(Br)cc5)cccc4o3)c2c1`
Output line: 15
